Measured growth, listed per entry.
System: Ruminococcus gnavus DSM 108212
method_description: growth (OD595) fold change vs plate DMSO controls (fold change (ratio)); higher = more growth
details: incubation time: 27 h, anaerobic, 37 °C
Structures can show the parent of a compound that is named as a salt.

>  <compound>
Cc1nccn1CC1CCc2c(c3ccccc3n2C)C1=O (stereo unspecified) [Ondansetron hydrochloride] (20 µM)

>  <growth>
1.08

$$$$
>  <compound>
CCCCc1ccc2[nH]c(NC(=O)OC)nc2c1 [Parbendazole] (20 µM)

>  <growth>
1.25

$$$$
>  <compound>
O=C(NCC(O)CO)c1c(I)c(C(=O)NCC(O)CO)c(I)c(N(CCO)C(=O)CO)c1I (stereo unspecified) [Ioversol] (20 µM)

>  <growth>
1.11

$$$$
>  <compound>
CC(=O)OCC(=O)NCCCOc1cccc(CN2CCCCC2)c1 [Roxatidine acetate hydrochloride] (20 µM)

>  <growth>
0.677

$$$$
>  <compound>
COC(=O)C1=C(C)NC(C)=C(C(=O)O[C@H]2CCN(Cc3ccccc3)C2)[C@H]1c1cccc([N+](=O)[O-])c1 [Barnidipine Hydrochloride] (20 µM)

>  <growth>
1.06

$$$$
>  <compound>
O=C(O)c1ccccc1Nc1cc(Cl)ccc1C(=O)O [Lobenzarit disodium] (20 µM)

>  <growth>
1.08

$$$$
>  <compound>
COc1ccc(-c2cc(=O)c3c(O)cc(O[C@@H]4O[C@H](CO[C@@H]5O[C@@H](C)[C@H](O)[C@@H](O)[C@H]5O)[C@@H](O)[C@H](O)[C@H]4O)cc3o2)cc1O [Diosmin] (20 µM)

>  <growth>
1.1

$$$$
>  <compound>
CCC1=C(C)CN(C(=O)NCCc2ccc(S(=O)(=O)NC(=O)N[C@H]3CC[C@H](C)CC3)cc2)C1=O [Glimepiride] (20 µM)

>  <growth>
0.969

$$$$
>  <compound>
CCCN1CCCC[C@H]1C(=O)Nc1c(C)cccc1C [Ropivacaine hydrochloride] (20 µM)

>  <growth>
0.779

$$$$
>  <compound>
CN(C/C=C/C#CC(C)(C)C)Cc1cccc2ccccc12 [Terbinafine] (20 µM)

>  <growth>
0.896

$$$$
>  <compound>
O=c1oc2ccccc2c(O)c1Cc1c(O)c2ccccc2oc1=O [Dicumarol] (20 µM)

>  <growth>
0.883

$$$$
>  <compound>
O=S(=O)(c1cccc2cnccc12)N1CCCNCC1 [Fasudil Hydrochloride] (20 µM)

>  <growth>
0.969

$$$$
>  <compound>
C/C(=C(\CCOP(=O)(O)O)SC(=O)c1ccccc1)N(C=O)Cc1cnc(C)nc1N [Benfotiamine] (20 µM)

>  <growth>
1.05

$$$$
>  <compound>
OCC1(O)OC[C@@H](O)[C@@H](O)[C@H]1O (stereo partly specified) [Psicose] (50 µM)

>  <growth>
1.03

$$$$
>  <compound>
CC(C)NCC(O)COc1ccc(COCCOC(C)C)cc1 (stereo unspecified) [Bisoprolol hemifumarate] (20 µM)

>  <growth>
0.79

$$$$
>  <compound>
Cc1cc2nc3c(=O)[nH]c(=O)nc-3n(C[C@H](O)[C@H](O)[C@H](O)CO)c2cc1C [Riboflavine] (20 µM)

>  <growth>
0.982

$$$$
>  <compound>
CCc1cccc(CC)c1NC(=O)CN(CC(=O)O)CC(=O)O [Etifenin] (20 µM)

>  <growth>
1.1

$$$$
>  <compound>
CCOC(=O)[C@H](CCc1ccccc1)N[C@H]1CCc2ccccc2N(CC(=O)O)C1=O [Benazepril hydrochloride] (20 µM)

>  <growth>
1.02

$$$$
>  <compound>
NC(=O)c1ncn([C@@H]2O[C@H](CO)[C@@H](O)[C@H]2O)n1 [Ribavirin] (20 µM)

>  <growth>
0.942

$$$$
>  <compound>
C[C@]12C=CC(=O)C=C1CC[C@@H]1[C@@H]2[C@@H](O)C[C@@]2(C)[C@H]1CC[C@]2(O)C(=O)CO [Prednisolone] (20 µM)

>  <growth>
0.987

$$$$
>  <compound>
OC(CCN1CCCCC1)(c1ccccc1)C1CC2C=CC1C2 (stereo unspecified) [Biperiden hydrochloride] (20 µM)

>  <growth>
0.975

$$$$
>  <compound>
OCCN1CCN(CCCN2c3ccccc3Sc3ccc(Cl)cc32)CC1 [Perphenazine] (20 µM)

>  <growth>
0.94

$$$$
>  <compound>
CN1[C@@H]2CC[C@H]1C[C@@H](OC(c1ccccc1)c1ccccc1)C2 [Benztropine mesylate] (20 µM)

>  <growth>
1

$$$$
>  <compound>
CC1=C(/C=C/C(C)=C/C=C/C(C)=C\C(=O)O)C(C)(C)CCC1 [Isotretinoin] (20 µM)

>  <growth>
1.02

$$$$
>  <compound>
CC[C@]12CCCN3CCc4c(n(c5ccccc45)[C@@](O)(C(=O)OC)C1)[C@@H]32 [Vincamine] (20 µM)

>  <growth>
0.949

$$$$
>  <compound>
NNCCc1ccccc1 [Phenelzine sulfate] (20 µM)

>  <growth>
1.01

$$$$
>  <compound>
Nc1ccc(S(=O)(=O)c2ccc(N)cc2)cc1 [Dapsone] (20 µM)

>  <growth>
1.2

$$$$
>  <compound>
Cc1ccc(/C(=C\CN2CCCC2)c2ccccn2)cc1 [Triprolidine hydrochloride] (20 µM)

>  <growth>
1.1

$$$$
>  <compound>
Cc1cc(C)nc(NS(=O)(=O)c2ccc(N)cc2)n1 [Sulfamethazine sodium salt] (20 µM)

>  <growth>
0.999

$$$$
>  <compound>
OC(c1cc(C(F)(F)F)nc2c(C(F)(F)F)cccc12)C1CCCCN1 (stereo unspecified) [Mefloquine hydrochloride] (20 µM)

>  <growth>
1

$$$$
>  <compound>
C=CCOC(Cn1ccnc1)c1ccc(Cl)cc1Cl (stereo unspecified) (20 µM)

>  <growth>
0.883

$$$$
